// data source = the MegaScale stability set (Tsuboyama et al. 2023)

Hi there, I'd appreciate the recorded folding stability dG for every entry that follows.
B1: EHEE_rd2_0601 (parent)
chain: TYTYKLTDEEASRRAEDEWRNRGYDVRVRNNNGTWEVEVR

- Variants of: B1
- test_method_notes: folding stability dG (cDNA display proteolysis); higher = more stable
- condition_summary: PBS, room temperature
State the answer as a number, implicitly in kcal/mol.

Lookup: Return the recorded folding stability dG value; entry: TYTYKLTDEEASRRAEDEWRNRGYDVRVRNNNGTWEVEVC [R40C]
Found: 1.7

Lookup: Return the recorded folding stability dG value; entry: TYTYKLTVEEASRRAEDEWRNRGYDVRVRNNNGTWEVEVR [D8V]
Found: -0.022

Lookup: Return the recorded folding stability dG value; entry: TYTYKLTDEEASRRAEDEWRNRGYDVRVRDNNGTWEVEVR [N30D]
Found: 1

Lookup: Return the recorded folding stability dG value; entry: TYTYKLTDEEASRRAEDEWRNFGYDVRVRNNNGTWEVEVR [R22F]
Found: 0.44

Lookup: Return the recorded folding stability dG value; entry: TYNYKLTDEEASRRAEDEWRNRGYDVRVRNNNGTWEVEVR [T3N]
Found: 0.532

Lookup: Return the recorded folding stability dG value; entry: TYTYKLTDKEASRRAEDEWRNRGYDVRVRNNNGTWEVEVR [E9K]
Found: 0.834

Lookup: Return the recorded folding stability dG value; entry: TYTYKLTDEEASRRAEDEWRNRGYDVRVQNNNGTWEVEVR [R29Q]
Found: 1.18

Lookup: Return the recorded folding stability dG value; entry: TYTYKLTDEEASRRAEDEWRNRGYDVRVRNNNGTIEVEVR [W35I]
Found: 0.328

Lookup: Return the recorded folding stability dG value; entry: TYTYKLTDEEASRRSEDEWRNRGYDVRVRNNNGTWEVEVR [A15S]
Found: 0.658

Lookup: Return the recorded folding stability dG value; entry: TYTYKLTDEEASRRAEDEWRNRGYDVRVRNNNGTWEVNVR [E38N]
Found: 0.56

Lookup: Return the recorded folding stability dG value; entry: TYTYILTDEEASRRAEDEWRNRGYDVRVRNNNGTWEVEVR [K5I]
Found: 2.2

Lookup: Return the recorded folding stability dG value; entry: TYTYKLTDEEASRRAEDEWRNRGYDVRVRNNNYTWEVEVR [G33Y]
Found: -0.464

Lookup: Return the recorded folding stability dG value; entry: TYTYKLTDEEASRRAEDEWRNRGYDVRVRNNNGAWEVEVR [T34A]
Found: 1.17

Lookup: Return the recorded folding stability dG value; entry: TYTYKLTDEEASRRAEDEWRNRGYDVRVRNNNGTVEVEVR [W35V]
Found: -0.844

Lookup: Return the recorded folding stability dG value; entry: TYTYKLTDEEASRRAEDEWRNRGYVVRVRNNNGTWEVEVR [D25V]
Found: 1.52

Lookup: Return the recorded folding stability dG value; entry: TYTYKLTDEEASRRAEDEWRNSGYDVRVRNNNGTWEVEVR [R22S]
Found: 0.439

Lookup: Return the recorded folding stability dG value; entry: TYTEKLTDEEASRRAEDEWRNRGYDVRVRNNNGTWEVEVR [Y4E]
Found: 0.419

Lookup: Return the recorded folding stability dG value; entry: TYTYKLTDEEASRIAEDEWRNRGYDVRVRNNNGTWEVEVR [R14I]
Found: 1.35

Lookup: Return the recorded folding stability dG value; entry: TYTYKLTDEEASRRAEDEWRNRGYDVRVRNSNGTWEVEVR [N31S]
Found: 1.1

Lookup: Return the recorded folding stability dG value; entry: TYTGKLTDEEASRRAEDEWRNRGYDVRVRNNNGTWEVEVR [Y4G]
Found: -0.985

Lookup: Return the recorded folding stability dG value; entry: TYTYKLTREEASRRAEDEWRNRGYDVRVRNNNGTWEVEVR [D8R]
Found: -0.434

Lookup: Return the recorded folding stability dG value; entry: TYTYKLDDEEASRRAEDEWRNRGYDVRVRNNNGTWEVEVR [T7D]
Found: 1.81

Lookup: Return the recorded folding stability dG value; entry: TYTYKLTDEEAWRRAEDEWRNRGYDVRVRNNNGTWEVEVR [S12W]
Found: 0.977

Lookup: Return the recorded folding stability dG value; entry: TYTYKLTDEEASRRAEDEWRNRGYDVRVRNNWGTWEVEVR [N32W]
Found: -0.071

Lookup: Return the recorded folding stability dG value; entry: TYTYKLTDEEASNRAEDEWRNRGYDVRVRNNNGTWEVEVR [R13N]
Found: 0.767

Lookup: Return the recorded folding stability dG value; entry: TYTYKLTDEEASRRAEDEWRNRGYDVTVRNNNGTWEVEVR [R27T]
Found: 2.03

Lookup: Return the recorded folding stability dG value; entry: TYEYKLTDEEASRRAEDEWRNRGYDVRVRNNNGTWEVEVR [T3E]
Found: 0.117

Lookup: Return the recorded folding stability dG value; entry: TYTYKLTDEEASRRAEDEWRNDGYDVRVRNNNGTWEVEVR [R22D]
Found: -0.181

Lookup: Return the recorded folding stability dG value; entry: TYTYKLTDEEASRWAEDEWRNRGYDVRVRNNNGTWEVEVR [R14W]
Found: 0.994

Lookup: Return the recorded folding stability dG value; entry: TYTYKLTDLEASRRAEDEWRNRGYDVRVRNNNGTWEVEVR [E9L]
Found: 1.14

Lookup: Return the recorded folding stability dG value; entry: TYTYKLTDEEASRRAENEWRNRGYDVRVRNNNGTWEVEVR [D17N]
Found: 1.78

Lookup: Return the recorded folding stability dG value; entry: TYTYKETDEEASRRAEDEWRNRGYDVRVRNNNGTWEVEVR [L6E]
Found: 0.639

Lookup: Return the recorded folding stability dG value; entry: TYTYKLWDEEASRRAEDEWRNRGYDVRVRNNNGTWEVEVR [T7W]
Found: 1.64

Lookup: Return the recorded folding stability dG value; entry: TYTYKLTDEEWSRRAEDEWRNRGYDVRVRNNNGTWEVEVR [A11W]
Found: 0.697

Lookup: Return the recorded folding stability dG value; entry: YYTYKLTDEEASRRAEDEWRNRGYDVRVRNNNGTWEVEVR [T1Y]
Found: 1.81

Lookup: Return the recorded folding stability dG value; entry: TYTYKLTDEEASRRDEDEWRNRGYDVRVRNNNGTWEVEVR [A15D]
Found: 0.605

Lookup: Return the recorded folding stability dG value; entry: TYTYKLTDEEASRRAEDEWRNRGYDVRVVNNNGTWEVEVR [R29V]
Found: 1.67

Lookup: Return the recorded folding stability dG value; entry: TYTYKLTDEEASRRAEDNWRNRGYDVRVRNNNGTWEVEVR [E18N]
Found: 1.03

Lookup: Return the recorded folding stability dG value; entry: TYTYKLTDEEGSRRAEDEWRNRGYDVRVRNNNGTWEVEVR [A11G]
Found: 0.768

Lookup: Return the recorded folding stability dG value; entry: TYTYKLTDEEASRRAEDEWRFRGYDVRVRNNNGTWEVEVR [N21F]
Found: 1.04

Lookup: Return the recorded folding stability dG value; entry: TYTYKLTDEEANRRAEDEWRNRGYDVRVRNNNGTWEVEVR [S12N]
Found: -0.531

Lookup: Return the recorded folding stability dG value; entry: TYTYKLTDEEASRRAEDEWLNRGYDVRVRNNNGTWEVEVR [R20L]
Found: 0.904

Lookup: Return the recorded folding stability dG value; entry: TYTYKLTSEEASRRAEDEWRNRGYDVRVRNNNGTWEVEVR [D8S]
Found: 1.9

Lookup: Return the recorded folding stability dG value; entry: TYTYKLTDEEASRRAEDEWRNRYYDVRVRNNNGTWEVEVR [G23Y]
Found: -0.588

Lookup: Return the recorded folding stability dG value; entry: TYTYKLTDEEASRRAEDEWRYRGYDVRVRNNNGTWEVEVR [N21Y]
Found: 0.831

Lookup: Return the recorded folding stability dG value; entry: TYTYKLTDEEASRRAELEWRNRGYDVRVRNNNGTWEVEVR [D17L]
Found: 2.06

Lookup: Return the recorded folding stability dG value; entry: TYTYKLTDEEASRRAEDEWRNRGYDVRVRNNNGTWDVEVR [E36D]
Found: 0.292

Lookup: Return the recorded folding stability dG value; entry: TYTYKLTDEEASRRAEDEWRNRGYDVRVRNQNGTWEVEVR [N31Q]
Found: 1.08

Lookup: Return the recorded folding stability dG value; entry: TYTYKLTDEEASRRAEDEWRNRGYDVRSRNNNGTWEVEVR [V28S]
Found: 0.536

Lookup: Return the recorded folding stability dG value; entry: TYTYKLTDEEASRRAEDEWRNRGYDVRVINNNGTWEVEVR [R29I]
Found: 1.78

Lookup: Return the recorded folding stability dG value; entry: TYTYKLTDEEASRRAEDEWRNRGYDVRVRNNNGTWEVEVY [R40Y]
Found: 1.59

Lookup: Return the recorded folding stability dG value; entry: TYTYKLTDEEARRRAEDEWRNRGYDVRVRNNNGTWEVEVR [S12R]
Found: 0.481

Lookup: Return the recorded folding stability dG value; entry: TYTYKLTDEEASRRAEDEWRNRGYDVRVRNTNGTWEVEVR [N31T]
Found: 1.21

Lookup: Return the recorded folding stability dG value; entry: TYTYKLTDEEASRRAEDEWRNRGYDVRVRNNNGTWEHEVR [V37H]
Found: 0.241

Lookup: Return the recorded folding stability dG value; entry: TYTYKLMDEEASRRAEDEWRNRGYDVRVRNNNGTWEVEVR [T7M]
Found: 1.78

Lookup: Return the recorded folding stability dG value; entry: TYTYKLTDQEASRRAEDEWRNRGYDVRVRNNNGTWEVEVR [E9Q]
Found: 1.07

Lookup: Return the recorded folding stability dG value; entry: TYTYKLTDEEASRRAEDEWRNRGYDVRVRNNNGTWEVEVG [R40G]
Found: 0.86

Lookup: Return the recorded folding stability dG value; entry: TYTYKLTHEEASRRAEDEWRNRGYDVRVRNNNGTWEVEVR [D8H]
Found: 0.365

Lookup: Return the recorded folding stability dG value; entry: TYTYKLTDEEAGRRAEDEWRNRGYDVRVRNNNGTWEVEVR [S12G]
Found: 1.14

Lookup: Return the recorded folding stability dG value; entry: TYTYKLTDEEASIRAEDEWRNRGYDVRVRNNNGTWEVEVR [R13I]
Found: 0.934

Lookup: Return the recorded folding stability dG value; entry: TYTYKLTDEEASRRAEDEWRWRGYDVRVRNNNGTWEVEVR [N21W]
Found: 0.672

Lookup: Return the recorded folding stability dG value; entry: TYTYKLTDWEASRRAEDEWRNRGYDVRVRNNNGTWEVEVR [E9W]
Found: 1.26

Lookup: Return the recorded folding stability dG value; entry: TYTYKLTDEEASRRAEDEWRNRGYDPRVRNNNGTWEVEVR [V26P]
Found: -0.384

Lookup: Return the recorded folding stability dG value; entry: TYTYKLTDEETSRRAEDEWRNRGYDVRVRNNNGTWEVEVR [A11T]
Found: 1.19

Lookup: Return the recorded folding stability dG value; entry: TYTYKLTDEEASRRAEDEWRNRGYDVRVRNNNGTWEVELR [V39L]
Found: 0.587

Lookup: Return the recorded folding stability dG value; entry: TYTYKLTDEEASRRAEDEWRNRGYDVRVRNNNVTWEVEVR [G33V]
Found: -0.925

Lookup: Return the recorded folding stability dG value; entry: TYTYKLRDEEASRRAEDEWRNRGYDVRVRNNNGTWEVEVR [T7R]
Found: 1.61

Lookup: Return the recorded folding stability dG value; entry: IYTYKLTDEEASRRAEDEWRNRGYDVRVRNNNGTWEVEVR [T1I]
Found: 1.73

Lookup: Return the recorded folding stability dG value; entry: TYTYKLTNEEASRRAEDEWRNRGYDVRVRNNNGTWEVEVR [D8N]
Found: 1.47

Lookup: Return the recorded folding stability dG value; entry: TYTYKLTDEEASRRAEDEWRNRGYDVRVRNNNGTWEMEVR [V37M]
Found: 0.715

Lookup: Return the recorded folding stability dG value; entry: TYTYKLGDEEASRRAEDEWRNRGYDVRVRNNNGTWEVEVR [T7G]
Found: 1.69

Lookup: Return the recorded folding stability dG value; entry: TYTYKLVDEEASRRAEDEWRNRGYDVRVRNNNGTWEVEVR [T7V]
Found: 1.63

Lookup: Return the recorded folding stability dG value; entry: TYTYKLTDEEASRRAEDEWRNRGYDVRVANNNGTWEVEVR [R29A]
Found: 0.917

Lookup: Return the recorded folding stability dG value; entry: TYTYKLTDEEASRRAEDEWRNRGYDVRVRNNVGTWEVEVR [N32V]
Found: 0.08

Lookup: Return the recorded folding stability dG value; entry: TYTYKLTDEPASRRAEDEWRNRGYDVRVRNNNGTWEVEVR [E10P]
Found: 1.02

Lookup: Return the recorded folding stability dG value; entry: TYTYKLTDEEASRRAEDEWRNRGYDVRVRNNNGTWEVEFR [V39F]
Found: 0.048

Lookup: Return the recorded folding stability dG value; entry: TYTYKLTDEEASRRAEDEWRNRGYDVVVRNNNGTWEVEVR [R27V]
Found: 2.05

Lookup: Return the recorded folding stability dG value; entry: TYTYKLTDEEASRRAEDEWRNRGYDVRVRNFNGTWEVEVR [N31F]
Found: 1.42
